Biological target: Recombinant Human CTLA4-Fc chimera (R&D systems) (human) (UniProt P16410)
Test: ELISA, signal over SA
readout kind: ELISA S/N(SA)

Worked examples, 4 binders total:
[
  {
    "binder": "GGCLHPFLPILSLHFCPF (peptide, not shown: large carriers; small tags and cut ends) [C4m3127-4th-NNS6-20]",
    "ELISA S/N(SA)": 4.4
  },
  {
    "binder": "GGCLHPYLPIFSVHFCAL (peptide, not shown: large carriers; small tags and cut ends) [C4m#19-5th2w-NNS6-87]",
    "ELISA S/N(SA)": 4.5
  },
  {
    "binder": "GGCLHPYLPIVSSHFCPF (peptide, not shown: large carriers; small tags and cut ends) [C4m3127-4th-NNS6-64]",
    "ELISA S/N(SA)": 12.9
  },
  {
    "binder": "GGCKHPVLPIWSWHFCRI (peptide, not shown: large carriers; small tags and cut ends) [C4m#19-5th4w-NN6-50]",
    "ELISA S/N(SA)": 28.1
  }
]

P: GGCLHPVLPIRSFHFCWR (peptide, not shown: large carriers; small tags and cut ends) [C4m#19-5th4w-NN6-87]
Q: GGCFHPFLPIQSRHFCCR (peptide, not shown: large carriers; small tags and cut ends) [C4m#19-5th2w-NNS6-93]
R: GGCWHPFLPILSLHFCGW (peptide, not shown: large carriers; small tags and cut ends) [C4m#19-6th4w-NN6-5-3]
S: GGCRHPFLPIYSVHFCAC (peptide, not shown: large carriers; small tags and cut ends) [C4m#19-5th4w-NN6-53]
Place the items in sequence of falling ELISA S/N(SA). // rank by listing labels in the order requested
S, P, R, Q
